# TESTED ON: CDK4/CCND3 (Homo sapiens, UniProt P11802)
# Sequence (P11802 whole entry): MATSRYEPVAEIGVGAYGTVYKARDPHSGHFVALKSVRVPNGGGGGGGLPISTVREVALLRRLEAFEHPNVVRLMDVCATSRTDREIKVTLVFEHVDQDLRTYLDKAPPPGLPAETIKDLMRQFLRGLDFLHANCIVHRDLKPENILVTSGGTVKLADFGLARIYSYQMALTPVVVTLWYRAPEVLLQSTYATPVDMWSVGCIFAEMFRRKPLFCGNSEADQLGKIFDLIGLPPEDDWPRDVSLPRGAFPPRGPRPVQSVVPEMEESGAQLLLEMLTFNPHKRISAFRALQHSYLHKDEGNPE
# Sequence (P30281 whole entry partner): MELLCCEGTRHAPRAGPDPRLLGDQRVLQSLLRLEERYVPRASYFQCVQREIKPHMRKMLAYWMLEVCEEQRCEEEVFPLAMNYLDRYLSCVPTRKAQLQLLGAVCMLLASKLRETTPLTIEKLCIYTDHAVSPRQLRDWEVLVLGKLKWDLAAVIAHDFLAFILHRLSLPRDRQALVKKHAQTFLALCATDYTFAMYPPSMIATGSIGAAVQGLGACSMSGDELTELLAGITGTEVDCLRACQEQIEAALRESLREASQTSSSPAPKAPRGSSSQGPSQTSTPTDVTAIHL
# ASSAY: CDK4 homogeneous time-resolved fluorescence (HTRF) kinase assay
# Type: biochemical
# PARTICULARS: CDK4/CCND; x = IC50 >250 nM; read-out: CDK4/CCND IC50 (>250 nM column)
Recorded IC50 for the following compounds

Below, each entry is followed by its recorded IC50 result.
> print(dat)
                               smiles.input  measured.parameter    result
1  CC1(C)C(=O)Nc2cc(C#Cc3nccc4cnc(Nc5ccc(S(C)(=O)=O)cc5)cc34)cnc21                IC50  > 250 nM
2  CCS(=O)(=O)c1ccc(Nc2cc3c(C#Cc4ccc5c(c4)NC(=O)C54CCC4)nccc3cn2)cc1                IC50  > 250 nM
3  CS(=O)(=O)c1ccc(Nc2cc3c(C#Cc4cc(Cl)ncc4N)nccc3cn2)cc1                IC50  > 250 nM

Field IC50 (entry "Cn1cc2c(Cl)c(-c3nccc4cnc(Nc5ccc(S(C)(=O)=O)cc5)cc34)ccc2n1" ) reads > 250 nM

get_value(item= "CS(=O)(=O)c1ccc(Nc2cc3c(C#Cc4cc(F)cnc4N)nccc3cn2)cc1" , readout=IC50) returns > 250 nM
